Target: alpha-thrombin (human, UniProt P00734;P00734 328-363;364-622)
Assay: BLI
assay.readout: pKd
pKd is defined as minus the log10 of a concentration measured in mol/L.

pKd reading for GGGAACAAAGCUGAAGUACUUACCC (structured_RNA, 2'-F pyrimidines; PS2 at 3'-phosphate of U17) [AF113-18] : 11.74
